biological target: HTR1E (Homo sapiens, UniProt P28566); construct: purchased Promega (in-house HiBiT-GPCR construct library, NanoBRET); test: NanoBRET screen HiBiT-HTR1E in HEK293; type: binding; conditions: HTR1E; tracer 0.1μM
Sequence (P28566 whole entry): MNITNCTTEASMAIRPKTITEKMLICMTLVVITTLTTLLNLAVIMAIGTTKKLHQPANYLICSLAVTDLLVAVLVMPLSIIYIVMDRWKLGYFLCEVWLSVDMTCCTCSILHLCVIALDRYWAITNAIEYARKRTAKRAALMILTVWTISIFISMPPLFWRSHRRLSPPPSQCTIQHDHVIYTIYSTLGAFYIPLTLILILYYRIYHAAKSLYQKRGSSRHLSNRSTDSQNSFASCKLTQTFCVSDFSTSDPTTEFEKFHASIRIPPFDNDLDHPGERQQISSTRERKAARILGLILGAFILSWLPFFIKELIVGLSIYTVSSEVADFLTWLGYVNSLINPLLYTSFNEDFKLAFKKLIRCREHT
Reported NanoBRET Fold Response values follow for various compounds
measure_name: NanoBRET Fold Response

CC(C)N(CC[C@H](c1ccccc1)c1cc(CCNC(=O)CCOCCOCCOCCOCCNC(=O)CCc2ccc3n2[B-](F)(F)[N+]2=C(c4ccc[nH]4)C=CC2=C3)ccc1O)C(C)C 1.27
O=C(CCOCCOCCOCCOCCNC(=O)CCc1ccc2n1[B-](F)(F)[N+]1=C(c3ccc[nH]3)C=CC1=C2)NCCCN1CCN(C2=Nc3ccccc3Oc3ccc(Cl)cc32)CC1 1.01
COc1ccccc1N1CCN(CCCCN2C(=O)c3ccc(CNC(=O)CCOCCNC(=O)c4ccc(CNC(=O)CCc5ccc6n5[B-](F)(F)[N+]5=C(c7ccc[nH]7)C=CC5=C6)cc4)cc3C2=O)CC1 0.84
Cc1cc2c(s1)Nc1ccccc1N=C2N1CCN(CCCNC(=O)CCOCCOCCOCCOCCNC(=O)CCc2ccc3n2[B-](F)(F)[N+]2=C(c4ccc[nH]4)C=CC2=C3)CC1 0.99
O=C(CCc1ccc2n1[B-](F)(F)[N+]1=C(c3ccc[nH]3)C=CC1=C2)NCCOCCOCCNC(=O)OCCOCCN1CCN(C2=Nc3ccccc3Sc3ccccc32)CC1 0.96

* * *

target: GABBR1 (Homo sapiens); construct: purchased Promega (in-house HiBiT-GPCR construct library, NanoBRET); assay: NanoBRET screen HiBiT-GABBR1 in HEK293; format: binding; conditions: GABBR1; tracer 1μM
Sequence (Q9UBS5 15-961 limits assumed): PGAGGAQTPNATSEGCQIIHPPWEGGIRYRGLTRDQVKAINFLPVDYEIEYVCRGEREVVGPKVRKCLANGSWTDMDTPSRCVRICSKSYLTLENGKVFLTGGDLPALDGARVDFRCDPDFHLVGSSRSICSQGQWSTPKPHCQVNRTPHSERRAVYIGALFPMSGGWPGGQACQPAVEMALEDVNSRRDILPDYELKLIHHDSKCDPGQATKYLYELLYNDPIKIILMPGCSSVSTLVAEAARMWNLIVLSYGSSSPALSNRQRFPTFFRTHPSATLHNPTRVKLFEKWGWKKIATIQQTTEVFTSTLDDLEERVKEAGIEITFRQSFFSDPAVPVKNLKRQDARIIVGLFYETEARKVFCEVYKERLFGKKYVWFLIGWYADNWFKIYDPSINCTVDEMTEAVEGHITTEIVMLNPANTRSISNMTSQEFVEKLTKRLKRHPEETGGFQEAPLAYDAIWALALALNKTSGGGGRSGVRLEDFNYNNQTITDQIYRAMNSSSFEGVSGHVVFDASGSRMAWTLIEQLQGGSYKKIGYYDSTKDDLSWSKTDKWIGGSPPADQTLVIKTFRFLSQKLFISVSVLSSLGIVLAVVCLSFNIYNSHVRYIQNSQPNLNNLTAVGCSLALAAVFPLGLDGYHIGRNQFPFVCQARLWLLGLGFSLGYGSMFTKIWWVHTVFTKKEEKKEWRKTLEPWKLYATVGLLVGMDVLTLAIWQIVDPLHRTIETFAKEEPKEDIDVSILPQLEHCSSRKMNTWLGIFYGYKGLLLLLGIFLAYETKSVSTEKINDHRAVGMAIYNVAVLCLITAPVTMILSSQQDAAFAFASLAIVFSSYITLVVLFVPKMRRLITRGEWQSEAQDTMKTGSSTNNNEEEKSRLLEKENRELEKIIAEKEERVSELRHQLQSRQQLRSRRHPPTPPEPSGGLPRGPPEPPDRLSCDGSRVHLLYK
Reported NanoBRET Fold Response values follow for various molecules
measure_name: NanoBRET Fold Response

molecule	result
O=C(CCc1ccc2n1[B-](F)(F)[N+]1=C(c3ccc[nH]3)C=CC1=C2)NCc1ccc(C(=O)NCCOCCC(=O)N[C@@H]2CC[C@@]3(O)[C@H]4Cc5ccc(O)c6c5[C@@]3(CCN4CC3CC3)[C@H]2O6)cc1 [Naltrexone-3-NB590]	0.49
COc1ccccc1N1CCN(CCCCN2C(=O)c3ccc(CNC(=O)CCOCCNC(=O)c4ccc(CNC(=O)CCc5ccc6n5[B-](F)(F)[N+]5=C(c7ccc[nH]7)C=CC5=C6)cc4)cc3C2=O)CC1	1.07
COc1ccccc1N1CCN(CCCCN2C(=O)c3ccc(CNC(=O)CCOCCOCCOCCOCCNC(=O)CCc4ccc5n4[B-](F)(F)[N+]4=C(c6ccc[nH]6)C=CC4=C5)cc3C2=O)CC1	0.93

* * *

Target: FZD6 (Homo sapiens, UniProt O60353)
Construct: purchased Promega (in-house HiBiT-GPCR construct library, NanoBRET)
Sequence (O60353 19-706): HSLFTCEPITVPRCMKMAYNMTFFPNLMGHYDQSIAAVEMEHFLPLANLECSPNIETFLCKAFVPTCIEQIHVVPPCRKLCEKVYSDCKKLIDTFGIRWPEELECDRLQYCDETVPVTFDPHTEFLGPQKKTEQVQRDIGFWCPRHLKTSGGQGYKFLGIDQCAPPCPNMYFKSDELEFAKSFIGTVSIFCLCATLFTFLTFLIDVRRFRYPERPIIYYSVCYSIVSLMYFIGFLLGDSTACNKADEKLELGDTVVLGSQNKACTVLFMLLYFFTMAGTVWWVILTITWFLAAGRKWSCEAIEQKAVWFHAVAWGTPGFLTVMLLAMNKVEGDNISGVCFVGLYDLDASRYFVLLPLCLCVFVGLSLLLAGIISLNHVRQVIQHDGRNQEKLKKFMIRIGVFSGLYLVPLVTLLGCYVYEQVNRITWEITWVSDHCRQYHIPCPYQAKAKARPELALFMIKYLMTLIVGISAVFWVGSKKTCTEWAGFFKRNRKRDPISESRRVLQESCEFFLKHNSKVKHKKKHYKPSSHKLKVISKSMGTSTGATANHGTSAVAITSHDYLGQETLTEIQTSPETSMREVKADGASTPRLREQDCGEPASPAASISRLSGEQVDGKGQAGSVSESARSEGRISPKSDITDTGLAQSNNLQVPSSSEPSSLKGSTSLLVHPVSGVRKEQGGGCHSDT
Assay: NanoBRET screen HiBiT-FZD6 in HEK293
Type: binding
Settings: FZD6; tracer 0.1μM
Reported NanoBRET Fold Response values follow for various compounds
measure_name: NanoBRET Fold Response

COc1ccccc1N1CCN(CCCCN2C(=O)c3ccc(CNC(=O)CCOCCNC(=O)c4ccc(CNC(=O)CCc5ccc6n5[B-](F)(F)[N+]5=C(c7ccc[nH]7)C=CC5=C6)cc4)cc3C2=O)CC1 0.95
Cc1cc2c(s1)Nc1ccccc1N=C2N1CCN(CCCNC(=O)CCOCCOCCOCCOCCNC(=O)CCc2ccc3n2[B-](F)(F)[N+]2=C(c4ccc[nH]4)C=CC2=C3)CC1 1.03
O=C(CCOCCOCCOCCOCCNC(=O)CCc1ccc2n1[B-](F)(F)[N+]1=C(c3ccc[nH]3)C=CC1=C2)NCCCN1CCN(C2=Nc3ccccc3Oc3ccc(Cl)cc32)CC1 1.09

* * *

target: HTR7 (Homo sapiens); construct: purchased Promega (in-house HiBiT-GPCR construct library, NanoBRET); assay: NanoBRET screen HiBiT-HTR7 in HEK293; format: binding; details: HTR7; tracer 0.1μM
Sequence (P34969 whole entry): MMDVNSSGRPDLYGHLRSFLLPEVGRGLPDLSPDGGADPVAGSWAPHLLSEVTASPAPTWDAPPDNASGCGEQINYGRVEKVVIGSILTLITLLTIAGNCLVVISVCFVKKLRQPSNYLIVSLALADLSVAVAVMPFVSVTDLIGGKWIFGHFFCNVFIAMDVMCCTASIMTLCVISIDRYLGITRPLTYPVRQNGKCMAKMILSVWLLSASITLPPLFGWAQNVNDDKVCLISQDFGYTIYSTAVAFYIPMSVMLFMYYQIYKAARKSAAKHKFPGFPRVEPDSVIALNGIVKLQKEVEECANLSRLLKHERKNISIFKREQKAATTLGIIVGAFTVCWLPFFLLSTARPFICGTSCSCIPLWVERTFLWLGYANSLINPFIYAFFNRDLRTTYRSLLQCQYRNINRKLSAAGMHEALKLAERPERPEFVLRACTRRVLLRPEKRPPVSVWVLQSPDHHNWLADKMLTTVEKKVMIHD

compound	NanoBRET Fold Response
O=C(CCc1ccc2n1[B-](F)(F)[N+]1=C(c3ccc[nH]3)C=CC1=C2)NCc1ccc(C(=O)NCCOCCC(=O)N[C@@H]2CC[C@@]3(O)[C@H]4Cc5ccc(O)c6c5[C@@]3(CCN4CC3CC3)[C@H]2O6)cc1 [Naltrexone-3-NB590]	0.97
O=C(CCc1ccc2n1[B-](F)(F)[N+]1=C(c3ccc[nH]3)C=CC1=C2)NCCOCCOCCNC(=O)OCCOCCN1CCN(C2=Nc3ccccc3Sc3ccccc32)CC1	1.01
COc1ccccc1N1CCN(CCCCN2C(=O)c3ccc(CNC(=O)CCOCCNC(=O)c4ccc(CNC(=O)CCc5ccc6n5[B-](F)(F)[N+]5=C(c7ccc[nH]7)C=CC5=C6)cc4)cc3C2=O)CC1	1.21

* * *

Reported NanoBRET Fold Response values follow for various molecules
target: CCR6 (Homo sapiens, UniProt P51684); construct: purchased Promega (in-house HiBiT-GPCR construct library, NanoBRET); experiment: NanoBRET screen HiBiT-CCR6 in HEK293; format: binding; conditions: CCR6; tracer 0.1μM
Sequence (P51684 whole entry): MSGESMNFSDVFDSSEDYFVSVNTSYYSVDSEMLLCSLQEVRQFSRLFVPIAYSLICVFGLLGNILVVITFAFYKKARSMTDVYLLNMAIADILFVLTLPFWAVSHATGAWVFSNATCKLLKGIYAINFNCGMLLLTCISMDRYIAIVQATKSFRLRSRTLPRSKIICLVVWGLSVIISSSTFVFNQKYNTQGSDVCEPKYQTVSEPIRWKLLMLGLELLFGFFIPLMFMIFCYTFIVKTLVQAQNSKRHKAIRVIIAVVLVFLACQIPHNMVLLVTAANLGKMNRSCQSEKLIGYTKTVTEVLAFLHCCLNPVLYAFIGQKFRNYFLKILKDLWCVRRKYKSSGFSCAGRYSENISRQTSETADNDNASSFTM
measure_name: NanoBRET Fold Response

molecule	target_or_test_system	number
O=C(CCOCCOCCOCCOCCNC(=O)CCc1ccc2n1[B-](F)(F)[N+]1=C(c3ccc[nH]3)C=CC1=C2)NCCCN1CCN(C2=Nc3ccccc3Oc3ccc(Cl)cc32)CC1	CCR6 (Homo sapiens, UniProt P51684)	1.00
Cc1nc2n(c(=O)c1CCN1CCC(c3noc4cc(F)ccc34)CC1)CCCC2OC(=O)NCCOCCOCCOCCOCCNC(=O)CCc1ccc2n1[B-](F)(F)[N+]1=C(c3ccc[nH]3)C=CC1=C2 (centres unmarked)	CCR6 (Homo sapiens, UniProt P51684)	1.07
Cc1cc2c(s1)Nc1ccccc1N=C2N1CCN(CCCNC(=O)CCOCCOCCOCCOCCNC(=O)CCc2ccc3n2[B-](F)(F)[N+]2=C(c4ccc[nH]4)C=CC2=C3)CC1	CCR6 (Homo sapiens, UniProt P51684)	1.00
O=C(CCc1ccc2n1[B-](F)(F)[N+]1=C(c3ccc[nH]3)C=CC1=C2)NCc1ccc(C(=O)NCCOCCC(=O)N[C@@H]2CC[C@@]3(O)[C@H]4Cc5ccc(O)c6c5[C@@]3(CCN4CC3CC3)[C@H]2O6)cc1 [Naltrexone-3-NB590]	CCR6 (Homo sapiens, UniProt P51684)	0.94
COc1ccccc1N1CCN(CCCCN2C(=O)c3ccc(CNC(=O)CCOCCOCCOCCOCCNC(=O)CCc4ccc5n4[B-](F)(F)[N+]4=C(c6ccc[nH]6)C=CC4=C5)cc3C2=O)CC1	CCR6 (Homo sapiens, UniProt P51684)	0.99
CCCn1c(=O)c2[nH]c(-c3ccc(OCC(=O)NCCNC(=O)CCOCCNC(=O)c4ccc(CNC(=O)CCc5ccc6n5[B-](F)(F)[N+]5=C(c7ccc[nH]7)C=CC5=C6)cc4)cc3)nc2n(CCC)c1=O	CCR6 (Homo sapiens, UniProt P51684)	1.00
COc1ccccc1N1CCN(CCCCN2C(=O)c3ccc(CNC(=O)CCOCCNC(=O)c4ccc(CNC(=O)CCc5ccc6n5[B-](F)(F)[N+]5=C(c7ccc[nH]7)C=CC5=C6)cc4)cc3C2=O)CC1	CCR6 (Homo sapiens, UniProt P51684)	1.19
N#CN=C(NCCCOc1cccc(CN2CCCCC2)c1)NCCNC(=O)CCOCCOCCOCCOCCNC(=O)CCc1ccc2n1[B-](F)(F)[N+]1=C(c3ccc[nH]3)C=CC1=C2	CCR6 (Homo sapiens, UniProt P51684)	0.96
CC(C)N(CC[C@H](c1ccccc1)c1cc(CCNC(=O)CCOCCOCCOCCOCCNC(=O)CCc2ccc3n2[B-](F)(F)[N+]2=C(c4ccc[nH]4)C=CC2=C3)ccc1O)C(C)C	CCR6 (Homo sapiens, UniProt P51684)	1.07
CC(C)N(CC[C@H](c1ccccc1)c1cc(CCNC(=O)c2ccc(CNC(=O)CCc3ccc4n3[B-](F)(F)[N+]3=C(c5ccc[nH]5)C=CC3=C4)cc2)ccc1O)C(C)C	CCR6 (Homo sapiens, UniProt P51684)	1.05
O=C(CCc1ccc2n1[B-](F)(F)[N+]1=C(c3ccc[nH]3)C=CC1=C2)NCCOCCOCCNC(=O)OCCOCCN1CCN(C2=Nc3ccccc3Sc3ccccc32)CC1	CCR6 (Homo sapiens, UniProt P51684)	1.05

meta.source: paper PMC8151276
